Experimental Target: human mu opioid receptor (Homo sapiens)
Sequence (P35372 whole entry): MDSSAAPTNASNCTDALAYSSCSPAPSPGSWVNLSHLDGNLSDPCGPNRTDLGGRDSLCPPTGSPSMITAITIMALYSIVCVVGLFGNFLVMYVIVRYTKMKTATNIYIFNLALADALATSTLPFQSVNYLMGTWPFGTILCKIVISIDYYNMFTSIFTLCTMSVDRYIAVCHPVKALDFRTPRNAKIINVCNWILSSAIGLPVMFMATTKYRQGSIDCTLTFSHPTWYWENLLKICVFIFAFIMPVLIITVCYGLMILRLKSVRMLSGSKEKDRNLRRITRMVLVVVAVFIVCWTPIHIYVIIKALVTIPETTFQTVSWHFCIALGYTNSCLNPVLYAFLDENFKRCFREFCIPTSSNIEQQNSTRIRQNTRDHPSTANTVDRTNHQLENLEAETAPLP
Procedure Summary: Similar assay for potency on the human mu opioid receptor
Protocol: Synthetic peptide amides of the invention were tested in a similar assay for potency on the human mu opioid receptor. The synthetic peptide amide (53) was tested in a similar assay for potency on the human mu opioid receptor.
pEC50: −log10 of the molar value.

{"columns": ["Smiles Entry", "pEC50"],
 "data": [
  ["CC(C)C[C@@H](NC(=O)[C@@H](Cc1ccccc1)NC(=O)[C@H](N)Cc1ccccc1)C(=O)N[C@H](CCCN)C(=O)N1CCCN(C(=N)N)CC1", "≤ 6.00"]
]}

---

Overview of reported EC50 across a group of molecules:
Experimental Target: UniProt P41145
Sequence (P41145 whole entry): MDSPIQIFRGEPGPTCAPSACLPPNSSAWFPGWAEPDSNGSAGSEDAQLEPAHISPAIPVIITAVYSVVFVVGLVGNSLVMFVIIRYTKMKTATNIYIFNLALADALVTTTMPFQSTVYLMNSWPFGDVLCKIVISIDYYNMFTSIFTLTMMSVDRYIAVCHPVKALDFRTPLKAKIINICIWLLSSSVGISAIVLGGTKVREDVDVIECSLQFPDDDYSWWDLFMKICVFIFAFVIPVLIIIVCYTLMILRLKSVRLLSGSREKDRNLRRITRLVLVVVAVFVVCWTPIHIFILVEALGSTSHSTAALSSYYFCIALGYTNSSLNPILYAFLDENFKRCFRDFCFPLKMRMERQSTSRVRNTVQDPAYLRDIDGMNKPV
Procedure Summary: cell-based
Square brackets hold non-standard residues; d marks the D form. Side chains are listed from the residue outwards. Peptide text beside a SMILES is read from it. * marks the point of attachment. Piperidin1yl(4-NH2,4-COOH) = NC1(C(=O)O)CCN(*)CC1; Homopiperazine(4-amidino) = N=C(N)N1CCCN(*)CC1; dAgp = N=C(N)NC[C@@H](N)C(=O)O; dOrn = NCCC[C@@H](N)C(=O)O

{"columns": ["Molecule", "EC50 / pM"],
 "data": [
  ["CC(C)C[C@@H](NC(=O)[C@@H](Cc1ccccc1)NC(=O)[C@H](N)Cc1ccccc1)C(=O)N[C@H](CCCCN)C(=O)N1CCC2(CCNC2=O)CC1 [Compound (25)]", 2.7],
  ["CC(C)C[C@@H](NC(=O)[C@@H](Cc1ccccc1)NC(=O)[C@H](N)Cc1ccccc1)C(=O)N[C@H](CCCN)C(=O)NCCCC[C@H](NC(=O)[C@H](N)CCCN)C(=O)N1CCNCC1 [Compound (81)]", 280],
  ["CC(C)C[C@@H](NC(=O)[C@@H](Cc1ccccc1)NC(=O)[C@H](N)Cc1ccccc1)C(=O)N[C@H](CCCN)C(=O)N1CCNC(C(=O)O)C1 (stereo partly drawn) [Compound (45)]", 150],
  ["CC(C)C[C@@H](NC(=O)[C@@H](Cc1ccccc1)NC(=O)[C@H](N)Cc1ccccc1)C(=O)N[C@H](CCCNC(=N)N)C(=O)N1CCCN(C(=N)N)CC1 [Compound (24)] (H-[dF][dF][dL][dR]-{Homopiperazine(4-amidino)})", 90],
  ["CC(C)C[C@@H](NC(=O)[C@@H](Cc1ccccc1)NC(=O)[C@H](N)Cc1ccccc1)C(=O)N[C@H](CCCCNC(C)C)C(=O)N1CCC(N)(C(=O)O)CC1 [Compound (9)]", 170],
  ["CC(C)C[C@@H](NC(=O)[C@@H](Cc1ccccc1)NC(=O)[C@H](N)Cc1ccccc1)C(=O)N[C@H](CCCCN)C(=O)N1CCN(S(C)(=O)=O)CC1 [Compound (68)]", 7.3],
  ["CC(C)C[C@@H](NC(=O)[C@@H](Cc1ccccc1)NC(=O)[C@H](N)Cc1ccccc1)C(=O)N[C@H](CNC(=N)N)C(=O)N1CCC(N)(C(=O)O)CC1 [Compound (10)] (H-[dF][dF][dL][dAgp]-{Piperidin1yl(4-NH2,4-COOH)})", 300],
  ["CC(C)C[C@@H](NC(=O)[C@@H](Cc1ccccc1)NC(=O)[C@H](N)Cc1ccccc1)C(=O)N[C@H](CCCCN)C(=O)N1CCN(c2ncccn2)CC1 [Compound (63)]", 7.3],
  ["CC(C)C[C@@H](NC(=O)[C@@H](Cc1ccccc1)NC(=O)[C@H](N)Cc1ccccc1)C(=O)N[C@H](CCCN)C(=O)NCCCC[C@H](NC(=O)[C@@H](CCCN)NC(=O)[C@@H](CC(C)C)NC(=O)[C@@H](Cc1ccccc1)NC(=O)[C@H](N)Cc1ccccc1)C(N)=O [Compound (80)] (H-[dF][dF][dL][dOrn]K([dOrn-dL-dF-dF])-NH2)", 250]
]}
